Cited source: patent US11124516B2

# Measurement protocol: Compound solubility in water
# Format: physicochemical
Each entry below carries its reported log10 of solubility.
Please interpret these as log10 of solubility where solubility is in µg/mL.

In [3]: df
Out[3]:
                                   molecule  value_observed
0  Cc1cc(C)n2ccc(C(=O)NC(=O)C3CC3)c2n1 [III-74]            1.39

What the record says about CCc1cc(C)n2ccc(C(=O)N[C@H]3CC[C@H](OC(C)(C)C)CC3)c2n1 [IV-6] : log10 of solubility is 0.90

Record Cc1cc(C)n2c(F)cc(C(=O)N[C@@H](C)C3CC3)c2n1 [IV-17] , field log10 of solubility: 1.33

###

activation at 1 µM reference
# Tested target: UniProt:P04062
# Measurement protocol: Glucocerebrosidase (Gcase) activation assay, 4-methylumbelliferyl-beta-D-glucopyranoside substrate, fluorescence
# Format: biochemical
# Study conditions: 0.25 h, pH 4.7, test compound at 1.0 μM, 10 nM GCase, 100 nM saposin C, read-out: Percent Gcase Activation 1 μM Test Compound

Examples from the recorded data:
In [3]: df
Out[3]:
                                   compound  value_observed
0  COc1ccccc1[C@H](C)NC(=O)c1ccn2c(C)cc(C)nc12           > 60%
1  Cc1cc(-c2cccnc2)nc2c(C(=O)N[C@H]3CC[C@H](OCC(C)(C)C)CC3)ccn12           > 60%
2  CCC(NC(=O)c1ccn2c(C)cc(C)nc12)c1nc(C2CC2)no1 (stereo not drawn)       30 to 60%
3  Cc1cc(C)n2ccc(C(=O)NC(C)c3ncc(-c4ccccc4)o3)c2n1 (stereo not drawn)           > 60%
4  Cc1cc(-c2ccc(F)cc2)nc2c(C(=O)N[C@@H](C)C3CC3)ccn12           > 60%

For `Cc1cc(C(F)F)nc2c(C(=O)N[C@H]3CC[C@H](OCC(C)(C)C)CC3)ccn12` the compound record lists activation at 1 µM as > 60%

Entry Cc1cc(C)n2ccc(C(=O)NC(C)c3ccc(-n4cccn4)cc3)c2n1 (stereo not drawn) — recorded activation at 1 µM = > 60%

Just so you know, measured activation at 1 µM for Cc1cc(C)n2ccc(C(=O)NC(C)c3ccc4c(c3)CC(C)O4)c2n1 (stereo not drawn) came out at > 60%

Short answer for Cc1cc(C)n2ccc(C(=O)NC(CO)c3ccc(C(C)C)cc3)c2n1 (stereo not drawn) : activation at 1 µM was < 30%

###

# Measurement protocol: Compound solubility in water
# Format: physicochemical
Property measured: Compound Solubility in Water (µg/mL)
Give just the number in µg/mL; leave the unit off.

In [3]: df
Out[3]:
                                   compound  value_observed
0  Cc1cc(C)n2ccc(C(=O)NC(C)C3CCCCC3)c2n1 (stereo not shown)             4.2
1  Cc1cc(C)n2ccc(C(=O)NC(C)c3cccc4ccccc34)c2n1 (stereo not shown) [IV-47]             0.7
2  Cc1cc(C)n2ccc(C(=O)NC(C)c3cccc4ccccc34)c2n1 (stereo not shown) [IV-26]             0.2

Documented Compound Solubility in Water of Cc1cc(C)n2ccc(C(=O)NC(C)c3cccc4ccccc34)c2n1 (stereo not shown) [IV-23] : 0.2

###

# Tested target: glucocerebrosidase (Gcase) (Homo sapiens)
# Sequence (P04062 40-536): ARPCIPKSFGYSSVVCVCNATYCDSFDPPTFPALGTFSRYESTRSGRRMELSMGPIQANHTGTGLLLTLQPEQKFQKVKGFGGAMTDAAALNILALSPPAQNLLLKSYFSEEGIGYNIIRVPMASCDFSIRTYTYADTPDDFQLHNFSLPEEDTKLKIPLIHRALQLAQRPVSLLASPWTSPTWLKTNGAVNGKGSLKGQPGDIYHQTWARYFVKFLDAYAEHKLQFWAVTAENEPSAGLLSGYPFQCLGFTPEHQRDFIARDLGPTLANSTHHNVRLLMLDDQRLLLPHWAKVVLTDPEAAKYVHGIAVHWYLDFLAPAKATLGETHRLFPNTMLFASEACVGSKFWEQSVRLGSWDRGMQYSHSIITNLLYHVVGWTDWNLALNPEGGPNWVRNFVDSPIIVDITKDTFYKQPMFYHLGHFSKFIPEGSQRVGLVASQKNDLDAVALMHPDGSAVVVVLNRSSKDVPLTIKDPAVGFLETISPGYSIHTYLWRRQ
# Measurement protocol: Glucocerebrosidase (Gcase) activation assay, 4-methylumbelliferyl-beta-D-glucopyranoside substrate, fluorescence
# Assay type: biochemical
# Study conditions: 0.25 h, pH 4.7, test compound at 1.0 μM, 10 nM GCase, 100 nM saposin C, read-out: Percent Gcase Activation 1 μM Test Compound
Item-by-item account of activation at 1 µM

Some compounds with recorded activation at 1 µM:
>>> df
                                   compound  value_observed
0   COCc1cc(C)nc2c(C(=O)NC(C)(C)C3CC3)ccn12           > 60%
1  Cc1c(-c2ccc(F)cc2)cnc2c(C(=O)N[C@@H](C)C3CC3)ccn12           < 30%
2  CCC(NC(=O)c1ccn2c(C)cc(C)nc12)c1cc(C)ccn1 (centres unmarked)           < 30%

# context switch: different compound, same activation at 1 µM
Notebook: Cc1cc(C)n2ccc(C(=O)NC(C)c3ccccc3F)c2n1 (centres unmarked) , activation at 1 µM read as > 60%

###

# Tested target: UniProt P04062
# Measurement protocol: Glucocerebrosidase (Gcase) activation assay, 4-methylumbelliferyl-beta-D-glucopyranoside substrate, fluorescence
# Assay type: biochemical
# Study conditions: 0.25 h, pH 4.7, test compound at 0.1 μM, 10 nM GCase, 100 nM saposin C, read-out: Percent Gcase Activation 0.1 μM Test Compound
Property measured: activation at 0.1 µM

>>> df
                                   molecule     property_measured  value_observed
0  Cc1cc(C)n2cc(C)c(C(=O)N[C@@H](C)C3CC3)c2n1  activation at 0.1 µM       10 to 20%
1  Cc1cc(C)n2ccc(C(=O)NC(C)c3ccc4c(c3)OCO4)c2n1 (stereo not shown)  activation at 0.1 µM           < 10%
2  Cc1cc(C)n2ccc(C(=O)NC(CO)c3cccc(C)c3C)c2n1 (stereo not shown)  activation at 0.1 µM           < 10%
3  Cc1cc(C)n2ccc(C(=O)NC(C)c3nnn(C4CC4)n3)c2n1 (stereo not shown)  activation at 0.1 µM           < 10%

Summary for this molecule, `C[C@H](NC(=O)c1ccn2c(C(F)F)cc(C(F)F)nc12)C1CC1` : activation at 0.1 µM is 10 to 20%

Item: `Cc1cc(C)n2ccc(C(=O)NC(C)(C)c3ccccc3Cl)c2n1` | activation at 0.1 µM: 10 to 20%

Entry `COCc1cc(C(F)F)n2ccc(C(=O)NC(C)(C)C3CC3)c2n1` ; activation at 0.1 µM = > 20%

###

# Tested target: glucocerebrosidase (Gcase) (Homo sapiens)
# Measurement protocol: Glucocerebrosidase (Gcase) activation assay, 4-methylumbelliferyl-beta-D-glucopyranoside substrate, fluorescence
# Type: biochemical
# Study conditions: 0.25 h, pH 4.7, test compound at 1.0 μM, 10 nM GCase, 100 nM saposin C, read-out: Percent Gcase Activation 1 μM Test Compound
# reported activation at 1 µM; entries follow

Example molecules with recorded activation at 1 µM:
>>> df
                                   molecule                             tested_target  value_observed
0  Cc1cc(C)n2ccc(C(=O)NC(CO)c3cccc(C)c3C)c2n1 (stereo not shown)  glucocerebrosidase (Gcase) (Homo sapiens)           < 30%
1  Cc1cc(C)n2ccc(C(=O)NC(C)(C)c3cccc4ccccc34)c2n1  glucocerebrosidase (Gcase) (Homo sapiens)           > 60%
2  COc1cccc([C@@H](C)NC(=O)c2ccn3c(C)cc(C)nc23)c1  glucocerebrosidase (Gcase) (Homo sapiens)           > 60%
3  C[C@H](NC(=O)c1ccn2cc(-c3ccc(F)cc3)cnc12)C1CC1  glucocerebrosidase (Gcase) (Homo sapiens)           < 30%
4  Cc1cc(C)n2ccc(C(=O)NC(C)c3cccc(N4CCCC4)c3)c2n1 (stereo not shown)  glucocerebrosidase (Gcase) (Homo sapiens)           > 60%

The recorded activation at 1 µM for entry `Cc1cc(C)n2ccc(C(=O)NC(C)(C)c3ccc4c(c3)OCCO4)c2n1` equals > 60%

// recorded activation at 1 µM for `Cc1cc(C2CCOCC2)nc2c(C(=O)NC(C)(C)C3CC3)ccn12` : 30 to 60%

# activation at 1 µM (molecule: `Cc1c2c(nc3c(C(=O)NC(C)(C)C4CC4)ccn13)CCC2` ) is > 60%

For this molecule ( `Cc1cc(C(F)F)nc2c(C(=O)N[C@H]3CC[C@H](OCC(C)C)CC3)ccn12` ), measured activation at 1 µM is > 60%

Consider `COCc1cc(C)n2ccc(C(=O)N[C@H]3CC[C@H](OCC(C)C)CC3)c2n1` . Its measured activation at 1 µM is > 60%

// `COCc1cc(C)nc2c(C(=O)N[C@H]3CC[C@H](OCC(C)(C)C)CC3)ccn12` : activation at 1 µM value = > 60%

###

# Tested target: UniProt P04062
# Measurement protocol: Glucocerebrosidase (Gcase) activation assay, 4-methylumbelliferyl-beta-D-glucopyranoside substrate, fluorescence
# Assay type: biochemical
# Study conditions: 0.25 h, pH 4.7, test compound at 0.1 μM, 10 nM GCase, 100 nM saposin C, read-out: Percent Gcase Activation 0.1 μM Test Compound
Property measured: activation at 0.1 µM

                                   compound   tested_target  value_observed
0  COCC(NC(=O)c1ccn2c(C)cc(C)nc12)C1CC1 (centres unmarked)  UniProt P04062           < 10%
1  CCC(NC(=O)c1ccn2c(C)cc(C)nc12)c1cccc(C)n1 (centres unmarked)  UniProt P04062           < 10%
2  CCCO[C@H]1CC[C@H](NC(=O)c2ccn3c(C(F)F)cc(C)nc23)CC1  UniProt P04062           > 20%
3  Cc1cc(C)n2ccc(C(=O)NC(CC(C)C)c3cccnc3)c2n1 (centres unmarked)  UniProt P04062           < 10%

# next compound below
Form: compound = CCC(NC(=O)c1ccn2c(C)cc(C)nc12)c1ccc(F)cc1 (centres unmarked) ; activation at 0.1 µM = > 20%
